tested-system: His6-AspH315–758 (human aspartate/asparagine-β-hydroxylase, AspH) (Homo sapiens, UniProt Q12797)
Construct: N-Terminally His6-tagged human AspH315–758 (His6-AspH315–758) was produced in E. coli BL21 (DE3) cells; made in house; host or cells: E. coli BL21 (DE3), pET-28a(+) vector
method: SPE-MS AspH inhibition assay (LOPAC screen at fixed 20 μM and IC50 dose-response), hydroxylation of cyclic peptide hFX-CP101–119
Assay type: biochemical
condition-info: LOPAC compound at 20uM, plate 3; conversion of substrate peptide
reported-property: Plate 3 (% conversion)
Answer format: value, then unit.

Recorded Plate 3 (% conversion), per entry:
• CCCCCCC(=O)OC1CC(C)(C)NC(C)(C)C1.Cl [TMPH hydrochloride] = 40.82%
• CSc1ccccc1N1CCN(CCCCCC(=O)NC2CCCc3ccccc32)CC1 (stereo not drawn) = 36.33%
• CN1CC(=O)NC1=NC(=O)Nc1cccc(Cl)c1 = 36.37%
• Cn1c(=O)c2[nH]c(-c3ccccc3)nc2n(C)c1=O = 35.64%
• Cl.Clc1cc(I)cc(Cl)c1NC1=NCCN1 [p-Iodoclonidine hydrochloride] = 40.33%

May I ask what Plate 3 (% conversion) has been recorded for CCN(CC)CC#CCOC(=O)C(O)(c1ccccc1)C1CCCCC1 (stereo not drawn) [Oxybutynin Chloride] ?
40.48%

Moving on to the next molecule: `CCOC(=O)C1=C(C)NC(C)=C(C(=O)OCC)C1c1c(F)c(F)c(F)c(F)c1F`
41.91%

Moving on to the next molecule: CCCC(CCC)C(=O)O [Valproic acid sodium]
37.52%

Moving on to the next molecule: CC(C)NNC(=O)c1ccncc1.O=P(O)(O)O [Iproniazid phosphate]
39.38%

====

The reader will find reported Plate 1 (% conversion) values listed item by item below.
tested-system: His6-AspH315–758 (human aspartate/asparagine-β-hydroxylase, AspH) (Homo sapiens, UniProt Q12797)
Construct: N-Terminally His6-tagged human AspH315–758 (His6-AspH315–758) was produced in E. coli BL21 (DE3) cells; made in house; host or cells: E. coli BL21 (DE3), pET-28a(+) vector
Sequence (Q12797 315-758): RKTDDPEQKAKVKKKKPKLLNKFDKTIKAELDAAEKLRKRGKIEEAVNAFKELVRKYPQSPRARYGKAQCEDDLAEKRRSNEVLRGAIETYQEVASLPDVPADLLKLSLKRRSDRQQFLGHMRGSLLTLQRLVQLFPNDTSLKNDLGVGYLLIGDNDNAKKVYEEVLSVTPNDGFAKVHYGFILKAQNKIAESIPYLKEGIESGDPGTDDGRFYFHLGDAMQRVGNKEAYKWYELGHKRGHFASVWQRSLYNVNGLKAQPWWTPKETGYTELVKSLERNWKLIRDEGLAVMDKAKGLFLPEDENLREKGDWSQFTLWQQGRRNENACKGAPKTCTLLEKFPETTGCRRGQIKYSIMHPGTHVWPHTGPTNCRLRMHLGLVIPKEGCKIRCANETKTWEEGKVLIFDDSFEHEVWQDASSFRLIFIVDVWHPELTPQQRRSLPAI
method: SPE-MS AspH inhibition assay (LOPAC screen at fixed 20 μM and IC50 dose-response), hydroxylation of cyclic peptide hFX-CP101–119
Format: biochemical
condition-info: LOPAC compound at fixed 20 uM; substrate conversion, plate 1
Structures can show the parent of a compound that is named as a salt.
Report the value in % with no unit label.

• Cn1cnc([N+](=O)[O-])c1Sc1ncnc2nc[nH]c12 = 41.91
• CC(C)(CO)Cc1cc(C(C)(C)C)c(O)c(C(C)(C)C)c1 = 39.68

May I ask what Plate 1 (% conversion) has been recorded for CCN(CC)CCOCCOC(=O)C1(c2ccccc2)CCCC1 [Carbetapentane citrate] ?
8.72

Moving on to the next compound: CC(C)COCC(CN(Cc1ccccc1)c1ccccc1)N1CCCC1 (stereo not drawn) [Bepridil hydrochloride]
4.14

Moving on to the next compound: CN(C)CC[C@@H](c1ccc(Cl)cc1)c1ccccn1 [(+)-Chlorpheniramine maleate]
40.53

====

tested-system: His6-AspH315–758 (human aspartate/asparagine-β-hydroxylase, AspH) (Homo sapiens, UniProt Q12797)
Construct: N-Terminally His6-tagged human AspH315–758 (His6-AspH315–758) was produced in E. coli BL21 (DE3) cells; made in house; host or cells: E. coli BL21 (DE3), pET-28a(+) vector
method: SPE-MS AspH inhibition assay (LOPAC screen at fixed 20 μM and IC50 dose-response), hydroxylation of cyclic peptide hFX-CP101–119
Type: biochemical
condition-info: LOPAC compound at 20uM, plate 2; normalised to DMSO and 2,4-PDCA controls
reported-property: Plate 2 (% inhibition) (%)
Report the value in % with no unit label.

Recorded Plate 2 (% inhibition), per entry:
• CNC(=O)c1cc2c(cn1)[nH]c1ccccc12 [N-Methyl-beta-carboline-3-carboxamide] = -2.54
• Br.Br.CN(C)CCCc1cc(C(=O)Nc2ccc(-c3ccncc3)cc2)ccc1O [GR 55562 dihydrobromide] = 13.87
• CCCCCCCCCCC/C=C\C(C)(C)/C=C\CCCC(=O)O = 91.20
• O=c1oc(Cl)c(Cl)c2ccccc12 = 18.85

May I ask what Plate 2 (% inhibition) has been recorded for `C[C@H]1O[C@@H](n2cc(F)c(=O)[nH]c2=O)[C@H](O)[C@@H]1O` ?
-1.12

Moving on to the next compound: CNCCc1cnc(CCC(c2ccccc2)c2ccccc2)[nH]1.O=C(O)C(=O)O.O=C(O)C(=O)O [N-Methylhistaprodifen dioxalate salt]
81.23

Moving on to the next compound: `Nc1ncnc2c1c(-c1ccc(Oc3ccccc3)cc1)cn2C1CCCC1`
-28.02

Moving on to the next compound: CC1=C(/C=C/C(C)=C/C=C/C(C)=C/C(=O)Nc2ccc(O)cc2)C(C)(C)CCC1 [Retinoic acid p-hydroxyanilide]
32.63

====

The reader will find reported Plate 2 (% conversion) values listed item by item below.
tested-system: His6-AspH315–758 (human aspartate/asparagine-β-hydroxylase, AspH) (Homo sapiens)
Construct: N-Terminally His6-tagged human AspH315–758 (His6-AspH315–758) was produced in E. coli BL21 (DE3) cells; made in house; host or cells: E. coli BL21 (DE3), pET-28a(+) vector
method: SPE-MS AspH inhibition assay (LOPAC screen at fixed 20 μM and IC50 dose-response), hydroxylation of cyclic peptide hFX-CP101–119
Assay type: biochemical
condition-info: LOPAC compound at 20uM, plate 2; conversion of substrate peptide
Structures can show the parent of a compound that is named as a salt.
Report the value in % with no unit label.

Recorded Plate 2 (% conversion), per entry:
* CC(C)(C)NCC(O)COc1cccc2[nH]c(=O)[nH]c12.Cl (racemic) [(±)-CGP-12177A hydrochloride] | 36.58
* Cc1ccccc1N1C(=O)c2cc(S(N)(=O)=O)c(Cl)cc2NC1C (centres unmarked) | 34.23
* Cn1c(=O)[nH]c2ncn(C)c2c1=O | 35.50

Provide the documented Plate 2 (% conversion) with His6-AspH315–758 (human aspartate/asparagine-β-hydroxylase, AspH) (Homo sapiens) as the system for O=c1cc(O)cc(/C=C/c2ccc(O)c(O)c2)o1 [Hispidin, reference compound]
3.05

Moving on to the next compound: `Cn1c(=O)c2[nH]c(C3CCCC3)nc2n(C)c1=O`
36.70

Moving on to the next compound: CCOC(=O)Nc1ccc(NCc2ccc(F)cc2)nc1N [Flupirtine maleate]
33.85

Moving on to the next compound: `O=C(Nc1cc(C(F)(F)F)cc(C(F)(F)F)c1)Nc1c(Br)cc(Br)cc1-c1nn[nH]n1`
28.28

Moving on to the next compound: `Br.CCCN1CCc2cc(O)cc3c2[C@H]1Cc1ccc(O)c(O)c1-3`
6.67

Moving on to the next compound: `NC(=O)CC[C@H](N)C(=O)O`
35.03

====

tested-system: His6-AspH315–758 (human aspartate/asparagine-β-hydroxylase, AspH) (Homo sapiens, UniProt Q12797)
Construct: N-Terminally His6-tagged human AspH315–758 (His6-AspH315–758) was produced in E. coli BL21 (DE3) cells; made in house; host or cells: E. coli BL21 (DE3), pET-28a(+) vector
method: SPE-MS AspH inhibition assay (LOPAC screen at fixed 20 μM and IC50 dose-response), hydroxylation of cyclic peptide hFX-CP101–119
Assay type: biochemical
Counter-ions that a name gives are not always drawn.
The reader will find reported Plate 2 (% conversion) values listed item by item below.
Report the value in % with no unit label.

- CN1[C@H]2C[C@H](OC(=O)[C@H](CO)c3ccccc3)C[C@@H]1[C@@H](O)C2 (racemic) [(+/-)-Anisodamine]: 36.39
- NCCc1c[nH]c2ccc(C(N)=O)cc12.O=C(O)/C=C\C(=O)O [5-Carboxamidotryptamine maleate]: 35.62
- CNCC[C@H](Oc1ccc(C(F)(F)F)cc1)c1ccccc1.Cl [S-(+)-Fluoxetine hydrochloride]: 45.11
- C[N+](C)(C)CCCCCCCCCC[N+](C)(C)C.[Br-].[Br-] [Decamethonium dibromide]: 41.52
- CC[C@H]1CN2CCc3cc(OC)c(OC)cc3[C@@H]2C[C@@H]1C[C@H]1NCCc2cc(OC)c(OC)cc21 [Emetine dihydrochloride hydrate]: 37.46

Pending molecule:
May I ask what Plate 2 (% conversion) has been recorded for Cc1cccc(C)c1NC(=O)CN1CCCC1=O [Nefiracetam] ?
34.89

This collection of values is drawn from paper PMC7251097.
